Tested on: B6C3F1 mice, B16 melanoma ip, median survival T/C
measurement_protocol: NCI In Vivo Anticancer Drug Screen. Data for tumor model B16 Melanoma (intraperitoneal) in B6C3F1 mice
test_context: endpoint: median survival time; dose: 20.0 mg/kg/injection; schedule: Q01DX009 (ip); vehicle: Klucel (hydroxypropylcellulose) (HPC)
Toxic doses and inconclusive results are not listed. How the source made its calls: active means survival T/C of 150% or more; inactive means T/C below 125% in these data.
Result category, one only: true for active, false for inactive

Worked cases, answers included:
>>> print(df.to_string())
                                   molecule  label_value
0  CCCC1C/C=C/C=C/C=C/C=C/C(OC2OC(C)C(O)C(N)C2O)CC(O)C(C(=O)O)C(O)CC(=O)CC(O)CCCC(=O)CC(O)C(CC)C(=O)O1 (centres undefined)        false
1  CC[PH+](CC)CC[S-].CC[PH+](CC)CC[S-].[Au+].[Au+]        false
2  CC1([CH2][Hg][I])COCC([CH2][Hg][I])O1 (centres undefined)        false

For the next question, use this molecule.
stdin: Status in this test for `c1ccc2c(NCCCCCCNc3c4ccccc4nc4ccccc34)c3ccccc3nc2c1` ?
stdout: true

----------
Test system: B6C3F1 mice, B16 melanoma ip, median survival T/C
measurement_protocol: NCI In Vivo Anticancer Drug Screen. Data for tumor model B16 Melanoma (intraperitoneal) in B6C3F1 mice
test_context: endpoint: median survival time; dose: 12.5 mg/kg/injection; schedule: Q01DX009 (ip); vehicle: water
Inconclusive results and toxic doses are left out. The calls were made as follows: active = survival T/C of 150% or more; inactive = T/C below 125% in these data.
Result category, one only: active, inactive

Worked cases, answers included:
                                   compound                          target_or_system  label_value
0                    Nc1n[n+](-c2ccccc2)no1  B6C3F1 mice, B16 melanoma ip, median survival T/C     inactive
1  O=C1C2C3C=CC(C2C(=O)N1CO)C1C2C(=O)N(CO)C(=O)C2C31 (centres undefined)  B6C3F1 mice, B16 melanoma ip, median survival T/C     inactive
2               NC(=O)/C=C/c1c[nH]c2nccnc12  B6C3F1 mice, B16 melanoma ip, median survival T/C     inactive
3                     Nc1cc(Cl)c2[nH]cnc2n1  B6C3F1 mice, B16 melanoma ip, median survival T/C     inactive
4  O=C(O)C1CC(c2ccccc2)=NN1c1ccccc1 (centres undefined)  B6C3F1 mice, B16 melanoma ip, median survival T/C     inactive
5    COc1ccc(OC)c(Cc2cnc3nc(N)nc(N)c3c2C)c1  B6C3F1 mice, B16 melanoma ip, median survival T/C     inactive
6                              O=NNc1cnccn1  B6C3F1 mice, B16 melanoma ip, median survival T/C     inactive
7  COc1cccc2c1C(=O)c1c(O)c3c(c(O)c1C2=O)C[C@@](O)(/C(C)=N\O)C[C@@H]3OC1CC(N)C(O)C(C)O1 (some centres undefined)  B6C3F1 mice, B16 melanoma ip, median survival T/C       active

stdin: Status in this test for `C/C(=N\NC(=S)N1CCN(c2ccccn2)CC1)c1ccccn1` ?
stdout: inactive

----------
Test system: B6C3F1 mice, B16 melanoma ip, median survival T/C
measurement_protocol: NCI In Vivo Anticancer Drug Screen. Data for tumor model B16 Melanoma (intraperitoneal) in B6C3F1 mice
test_context: endpoint: median survival time; dose: 12.5 mg/kg/injection; schedule: Q01DX009 (ip); vehicle: saline
Toxic doses and inconclusive results are not listed. The calls were made as follows: active = survival T/C of 150% or more; inactive = T/C below 125% in these data.
Result category, one only: active, inactive

Worked cases, answers included:
In [3]: df
Out[3]:
                                   molecule                          target_or_system  label_value
0  C1OC1CO[C@@H]1CO[C@H]2[C@@H]1OC[C@H]2OCC1CO1 (stereo not given in full)  B6C3F1 mice, B16 melanoma ip, median survival T/C     inactive
1  O=[n+]1c2c(n([O-])c3ccccc31)-c1cccc3cccc-2c13  B6C3F1 mice, B16 melanoma ip, median survival T/C     inactive
2  C(COCCOCC1CO1)OCCOCC1CO1 (stereo not given)  B6C3F1 mice, B16 melanoma ip, median survival T/C     inactive
3       NC1=NC(=O)N2CC12 (stereo not given)  B6C3F1 mice, B16 melanoma ip, median survival T/C     inactive
4  COC(OC(CO)C(O)S(=O)(=O)O)C(O)S(=O)(=O)O (stereo not given)  B6C3F1 mice, B16 melanoma ip, median survival T/C     inactive
5                        CCCNc1ncnc2c1cnn2C  B6C3F1 mice, B16 melanoma ip, median survival T/C     inactive
6  CN1CCN(c2ccc3nc(-c4ccc5nc(-c6ccc(O)cc6)[nH]c5c4)[nH]c3c2)CC1  B6C3F1 mice, B16 melanoma ip, median survival T/C     inactive
7  CN(Cc1cnc2nc(N)nc(N)c2n1)c1c(Cl)cc(C(=O)NC(CCC(=O)O)C(=O)O)cc1Cl (stereo not given)  B6C3F1 mice, B16 melanoma ip, median survival T/C     inactive
8  C=C(C)[C@H]1CN[C@H](C(=O)O)[C@H]1CC(=O)O  B6C3F1 mice, B16 melanoma ip, median survival T/C     inactive
9              O=CC(S)CO (stereo not given)  B6C3F1 mice, B16 melanoma ip, median survival T/C     inactive

stdin: Status in this test for `[Cl][Sn]([c]1ccccc1)[c]1ccccc1` ?
stdout: inactive

stdin: Status in this test for `CCCC(=O)O` ?
stdout: inactive

stdin: Status in this test for `O=S(=O)(O)c1cc(N=C=S)ccc1/C=C/c1ccc(N=C=S)cc1S(=O)(=O)O` ?
stdout: inactive

stdin: Status in this test for `N=C(N)CCCCCCCCC(=N)N` ?
stdout: inactive
